B1: INTS3 (parent)
chain: AQLQALRQKEVDFCISLLRERFME

Variants of: B1
TEST_SUMMARY: protein stability index of a GFP-peptide fusion (GPS, HEK-293T) (PSI 1-6); higher = more stable;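 also: lentivirally expressed fusions sorted by FACS into six bins by GFP to DsRed ratio, PSI derived from sequencing read proportions per bin multiplied by bin number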
PARTICULARS: c terminus: a fixed tail appended
MEASUREMENT_LABEL: protein stability index
One number for each entry.

Use the examples below as a reference point.
Return protein stability index for the following variant: R21D
1.14

Return protein stability index for the following variant: A1T
3.13

Return protein stability index for the following variant: L6C
3.33

Return protein stability index for the following variant: E24N
2.72

For each listed entry, give its protein stability index.
1. C14Q
2. L17G
3. Q2W

1: 1.84; 2: 2.3; 3: 2.42

For each listed entry, give its protein stability index.
1. E20C
2. K9T

[2.38, 2.45]

For each listed entry, give its protein stability index.
1. F22E
2. F13G
3. Q4W
4. C14N
5. C14W
6. M23Q
7. Q4P

2.16
2
3.64
1.52
1.96
1.03
1.5

For each listed entry, give its protein stability index.
1. K9H
2. D12W
3. F13H

1: 3.64; 2: 3.08; 3: 1.95

For each listed entry, give its protein stability index.
1. L3S
2. S16P
3. L17W

1: 1.76; 2: 2.14; 3: 2.46

The values you see were collected from the supplement of paper PMC10567573.
